Quick reference: normalized growth of the listed items.
# test-protocol: chemical genetic growth profiling, strain panel (AID 1159580);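 further: tested at 20 µM; growth read once vehicle control cultures reached saturation at 30 °C; 1 = growth at the plate median or of vehicle wells; lower values mean less growth of the strain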
# condition-context: S. cerevisiae deletion strains, growth OD, locus YDR162C, strain NBP2, hits give low values
About 2,000 (36%) of roughly 5,500 compounds were called active. Not shown: some 18% with an inconclusive outcome. The list shows a part of the results. Where a SMILES comes first, the peptide text is derived from it.
measured-quantity: normalized growth

1) CC(C)(S)[C@@H](N)C(=O)O = 1
2) NCCCCNCCCN = 0.998
3) CC(=O)N[C@@H](CC(=O)O)C(=O)N[C@@H](CCC(=O)O)C(=O)O (Ac-Asp-Glu-OH) = 1.02
4) c1ccc2c(CC3=NCCN3)cccc2c1 = 1
5) NCCCCCC(=O)O = 0.985
6) CC(=O)N[C@@H](CCC(=O)O)C(=O)O = 1.01
7) NCCCC(=O)O = 1

---

# test-protocol: chemical genetic growth profiling, strain panel (AID 1159580);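 further: tested at 20 µM; growth read once vehicle control cultures reached saturation at 30 °C; 1 = growth at the plate median or of vehicle wells; lower values mean less growth of the strain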
# condition-context: S. cerevisiae deletion strains, growth OD, locus YDL101C, strain DUN1, hits give low values
Among all 5,500 compounds or so, about 2,000 (36%) were called active. Not shown: some 18% with an inconclusive outcome. Some of the results follow.
measured-quantity: normalized growth

1) CC(C)c1nc(N(C)S(C)(=O)=O)nc(-c2ccc(F)cc2)c1/C=C/[C@@H](O)C[C@@H](O)CC(=O)O = 0.996
2) CC12CCC3C(CC[C@H]4CC5(CCC34C)OCCO5)C1CCC2O (stereo partly specified) = 0.976
3) CC1=CC(=O)N(c2ccc(OC(F)(F)F)cc2)C1=O = 0.869
4) NC(N)=NCCN1CCCCCCC1 = 1
5) O=C(O)C(O)C(O)C(O)C(O)C(=O)O (stereo unspecified) = 0.988
6) CC(=O)OCC(=O)[C@@]1(O)CCC2C3CCC4=CC(=O)C=CC4(C)C3[C@@H](O)C[C@@]21C (stereo partly specified) = 1
7) O=C(NNc1ccccc1)c1cc(-c2ccc(Cl)cc2)oc1C(F)(F)F = 0.973
8) NC(C(=O)O)C(O)C(=O)O (stereo unspecified) = 1.02
9) CC(=O)c1ccc(N2C(=O)CSCC2=O)cc1 = 1.01
10) O=C1C2C3C=CC(C3)C2C(=O)N1c1ccc(F)c(F)c1 (stereo unspecified) = 0.993
11) CC(=O)C1CCC2C3CCC4C[C@H](O)CCC4(C)C3C[C@H](O)C12C (stereo partly specified) = 1.02

---

Quick reference: normalized growth of the listed items.
# test-protocol: chemical genetic growth profiling, strain panel (AID 1159580);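 further: tested at 20 µM; growth read once vehicle control cultures reached saturation at 30 °C; 1 = growth at the plate median or of vehicle wells; lower values mean less growth of the strain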
# condition-context: S. cerevisiae deletion strains, growth OD, locus YPR111W, strain DBF20, hits give low values
The campaign covered roughly 5,500 compounds. About 2,000 (36%) were called active. Inconclusive results (about 18%) are left out. This is one part of the list.
measured-quantity: normalized growth

1. O=S(=O)(Nc1csc(C(F)(F)F)c1-c1ccccc1)c1cc(Br)c(Br)s1 = 0.943
2. O=S(=O)(Nc1cc(Cl)c(Cl)cc1Cl)c1cc(C(F)(F)F)cc(C(F)(F)F)c1 = 0.944
3. FC(F)(F)c1cc(NC(=S)SCCSC(=S)Nc2cc(C(F)(F)F)cc(C(F)(F)F)c2)cc(C(F)(F)F)c1 = 0.988
4. N/C(=N/O)c1ccc(Oc2ccc(C3SCCS3)cc2)c([N+](=O)[O-])c1 = 0.978
5. Cc1noc(C)c1S(=O)(=O)Nc1csc(C(F)(F)F)c1-c1ccccc1 = 0.97
6. Clc1ccc(Oc2ccnc3cc(Cl)ccc23)cc1 = 0.89
7. Brc1ccc(-c2csc(-c3cccnc3)n2)cc1 = 0.918
8. Cc1cccc(N=NC(C(=O)C(F)(F)F)=C(O)c2cccs2)c1 = 0.972
9. CC1=CC(=O)N(c2ccc(F)c(Cl)c2)C1=O = 0.976
10. COc1ccc2c(c1)CCc1sc(NC(=O)c3ccco3)nc1-2 = 0.967
11. O=S(=O)(NCc1cc(Cl)cc(Cl)c1)c1cc(C(F)(F)F)cc(C(F)(F)F)c1 = 0.989
12. CC1C(c2ccccc2)N(C)C(c2ccccc2)CC1(O)c1ccc(F)cc1 (stereo not given) = 0.99
13. COc1ccc(Nc2nc(NC(=O)Nc3ccc(Cl)cc3)n[nH]2)cc1 = 0.981
14. Clc1cc(Cl)cc(C=NCc2ccccc2)c1 = 0.957
15. Nc1ccccc1C(=O)Nc1cc(C(F)(F)F)cc(C(F)(F)F)c1 = 0.946
16. O=[N+]([O-])c1ccsc1Oc1cccc(C(F)(F)F)c1 = 0.96
17. COc1ccc(-c2csc(-c3cccnc3)n2)cc1 = 0.956
18. CNC(=O)Sc1c(-c2ccc(Cl)cc2)nn(C(=O)NC)c1SC = 0.982
19. O=C(Nc1cc(C(F)(F)F)cc(C(F)(F)F)c1)C(Cl)(Cl)Cl = 0.941
20. Clc1ccccc1-c1csc(-c2ccncc2)n1 = 0.97
21. N#Cc1ccc(Oc2sccc2[N+](=O)[O-])cc1 = 0.993
22. C[C@@H](Nc1ncnc2sc3c(c12)CCCC3)c1ccccc1 = 0.922
23. O=C(Nc1ccncc1)c1cc(-c2ccccc2)oc1C(F)(F)F = 0.98
24. CC1CCC(C(C)C)C(N(Cc2ccccc2)C(=O)c2ccccc2)C1 (stereo not given) = 0.948
25. C/C(=N/NC(=S)NCC(C)(C)C)c1cc(F)cc(Cl)c1O = 0.968
26. Cc1ccc(-c2nc(NS(=O)(=O)c3cccc4nonc34)sc2C)cc1Cl = 0.953
27. O=S(=O)(NCc1ccc(C(F)(F)F)cc1)c1cc(Br)c(Br)s1 = 0.982
28. Clc1ccc(-c2cnc(Nc3cc(Cl)cc(Cl)c3)s2)cc1 = 0.674
29. Cc1ccccc1/C=C/c1c[nH]c2ccccc12 = 0.952
30. Clc1ccccc1-c1csc(-c2cccnc2)n1 = 0.938
